- TARGET OR SYSTEM: BACE1 enzyme (Homo sapiens (Human))
- Sequence (P56817 46-457): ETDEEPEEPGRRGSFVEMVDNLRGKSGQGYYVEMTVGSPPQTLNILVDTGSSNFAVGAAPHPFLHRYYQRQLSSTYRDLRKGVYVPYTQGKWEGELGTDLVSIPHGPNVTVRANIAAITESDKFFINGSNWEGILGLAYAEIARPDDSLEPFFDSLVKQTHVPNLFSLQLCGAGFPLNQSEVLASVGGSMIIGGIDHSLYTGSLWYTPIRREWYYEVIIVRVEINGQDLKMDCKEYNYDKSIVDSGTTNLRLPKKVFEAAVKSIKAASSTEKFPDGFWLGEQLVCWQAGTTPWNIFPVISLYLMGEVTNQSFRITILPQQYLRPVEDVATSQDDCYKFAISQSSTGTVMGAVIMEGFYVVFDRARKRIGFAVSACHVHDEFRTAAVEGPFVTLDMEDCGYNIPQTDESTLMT
Where a name gives a salt, the structure may show the parent alone.
What pIC50 was measured for each of the following?
Answers are plain numbers, as −log10 of the molar value.

# annotated cases, reported pIC50 shown
Cc1csc([C@H]2C[C@H]3CSC(N)=N[C@@]3(c3ccc(F)cc3F)CO2)n1 | 6.59
NC1=N[C@@]2(c3ccc(F)cc3F)CO[C@@H](c3ccn(C4CC4)n3)C[C@H]2CS1 | 6.35
Cc1cnc([C@H]2C[C@H]3CSC(N)=N[C@@]3(c3ccc(F)cc3F)CO2)nc1 [Example 24, trifluoroacetate salt] | 6.16
NC1=N[C@@]2(c3ccc(F)cc3F)CO[C@@H](c3ncc(F)cn3)C[C@H]2CS1 | 6.79

For every record below, what is its pIC50?
1. Cc1nc([C@H]2C[C@H]3CSC(N)=N[C@@]3(c3ccc(F)cc3F)CO2)oc1C
2. Cc1nc([C@H]2C[C@H]3CSC(N)=N[C@@]3(c3ccc(F)cc3F)CO2)co1 [Example 11, hydrochloride salt]
3. NC1=N[C@@]2(c3ccc(F)cc3F)CO[C@@H](c3ncco3)C[C@H]2CS1
4. Cc1ccnc([C@H]2C[C@H]3CSC(N)=N[C@@]3(c3ccc(F)cc3F)CO2)n1

*A*
6.95
6.50
6.29
5.83

----------
- Test system: H4 human neuroglioma cells over-expressing the wild-type human APP695
- PROCEDURE TEXT: sAPPβ Whole-Cell Assay (in vitro sAPPb assay, ELISA)
- Type: cell-based
- CONDITIONS: Homo sapiens, 18 hours, geometric mean of 2-7 determinations (values marked b: single determination)
Counter-ions that a name gives are not always drawn.
What IC50 was measured for each of the following?
Numbers only, in nM.

NC1=N[C@@]2(c3ccc(F)cc3F)CO[C@@H](c3ncccn3)C[C@H]2CS1 | 44
NC1=N[C@@]2(c3ccc(F)cc3F)CO[C@@H](c3nc(C(F)(F)F)co3)C[C@H]2CS1 | 14
NC1=N[C@@]2(c3ccc(F)cc3F)CO[C@@H](c3ncc(F)cn3)C[C@H]2CS1 | 10
Cc1cnc([C@H]2C[C@H]3CSC(N)=N[C@@]3(c3ccc(F)cc3F)CO2)nc1 [Example 24, trifluoroacetate salt] | 24
Cc1coc([C@H]2C[C@H]3[C@@H](C)SC(N)=N[C@@]3(c3ccc(F)cc3F)CO2)n1 | 6

In the following, a different compound is considered.
*Q* Give the measured IC50 of NC1=N[C@@]2(c3ccc(F)cc3F)CO[C@@H](c3ccncn3)C[C@H]2CS1 .
*A* 28

----------
Please consider the recorded IC50 for UniProt:Q9Y5Z0 in what follows.
Give bare numbers, in nM.

For every record below, what is its IC50?
1. NC1=N[C@@]2(c3ccc(F)cc3F)CO[C@@H](c3ncco3)C[C@H]2CS1 [Example 1]
2. Cc1coc([C@H]2C[C@H]3CSC(N)=N[C@@]3(c3ccc(F)cc3F)CO2)n1 [Example 4]
3. Cc1nc([C@H]2C[C@H]3CSC(N)=N[C@@]3(c3ccc(F)cc3F)CO2)oc1C [Example 15]
4. NC1=N[C@@]2(c3ccc(F)cc3F)CO[C@@H](c3ccncn3)C[C@H]2CS1 [Example 18]

*A*
619
273
2820
695

----------
- TARGET OR SYSTEM: BACE2 enzyme (Homo sapiens (Human), UniProt Q9Y5Z0)
- Sequence (Q9Y5Z0 63-518): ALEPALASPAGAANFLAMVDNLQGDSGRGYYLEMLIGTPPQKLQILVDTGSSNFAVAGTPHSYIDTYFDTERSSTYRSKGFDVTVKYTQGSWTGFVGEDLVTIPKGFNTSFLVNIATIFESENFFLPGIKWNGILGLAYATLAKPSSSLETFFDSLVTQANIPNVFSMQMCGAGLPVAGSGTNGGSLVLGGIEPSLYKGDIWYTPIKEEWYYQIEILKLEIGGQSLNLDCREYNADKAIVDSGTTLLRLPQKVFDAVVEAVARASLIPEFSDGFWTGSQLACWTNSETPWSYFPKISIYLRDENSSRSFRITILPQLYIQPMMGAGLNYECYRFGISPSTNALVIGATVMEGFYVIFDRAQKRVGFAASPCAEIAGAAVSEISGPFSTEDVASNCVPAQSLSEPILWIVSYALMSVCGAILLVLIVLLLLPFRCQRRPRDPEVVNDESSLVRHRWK
Where a name gives a salt, the structure may show the parent alone.
Friendly reminder: IC50 below 2000 nM is Y, at or above is N.

Example entries begin here.
Cc1nccc([C@H]2C[C@H]3CSC(N)=N[C@@]3(c3ccc(F)cc3F)CO2)n1 | N
Cc1csc([C@H]2C[C@H]3CSC(N)=N[C@@]3(c3ccc(F)cc3F)CO2)n1 | N
C[C@H]1SC(N)=N[C@@]2(c3ccc(F)cc3F)CO[C@@H](c3ncco3)C[C@@H]12 | N
Cc1cnc([C@H]2C[C@H]3CSC(N)=N[C@@]3(c3ccc(F)cc3F)CO2)nc1 [Example 24, trifluoroacetate salt] | Y
NC1=N[C@@]2(c3ccc(F)cc3F)CO[C@@H](c3ncccn3)C[C@H]2CS1 | N

*Q* Decide: IC50 of Cn1cc([C@H]2C[C@H]3CSC(N)=N[C@@]3(c3ccc(F)cc3F)CO2)cn1 strictly below 2000 nM?
*A* Y

*Q* Same question, Cn1ccc([C@H]2C[C@H]3CSC(N)=N[C@@]3(c3ccc(F)cc3F)CO2)n1 this time
*A* N
